# study system: RASSF8
# assay details: pooled miR-30 sensor sort-seq; sequence = guide strand
# condition details: shRNA
Give measured sensor-assay potency score (higher = more potent) for each item. Keep answers brief.

Consider TACATCGTTTCTTTTGATCTTT . Its measured sensor-assay potency score (higher = more potent) is -0.624

Lab book: sensor-assay potency score (higher = more potent) of TTGATTGATTTGTCAATCTGAG noted as -0.187

Note to self: sensor-assay potency score (higher = more potent) recorded for TTCTCTATAAGGGTGTACCTTC was -0.973

Entry TTCTATTTCATTAGATTCCAGC — recorded sensor-assay potency score (higher = more potent) = -0.148

Kindly note the recorded sensor-assay potency score (higher = more potent) for TTTGCAGTTATTCAGCACCTTT , which is -1.3

State recorded sensor-assay potency score (higher = more potent) for all listed sequences.
1. TAAGGCTATGACAACCTCCTGG
2. TATTTCATTAGATTCCAGCTGT

1. 0.0646
2. 1.11

###

# study system: MAGOH
# assay details: pooled miR-30 sensor sort-seq; sequence = guide strand
# condition details: shRNA
Decision: sensor-assay potency score (higher = more potent) >= -0.6 yields satisfied, all other cases yield not satisfied.

// below: answered sequences
Is sensor-assay potency score (higher = more potent) at least -0.6? Consider TCTGATCATGACATCATTCTTG
satisfied

Dear colleague, could you confirm whether TCAAACTCCAGGAACTCGTGGC has sensor-assay potency score (higher = more potent) at or above -0.6?
satisfied

Further cases:
Reported sensor-assay potency score (higher = more potent) reaches at least -0.6 for TTTTCTGATCATGACATCATTC ?
not satisfied

# check: sensor-assay potency score (higher = more potent) of TCCAATAAGACTGAAGACCAAA is greater than or equal to -0.6
not satisfied

###

# study system: RPS28
# assay details: pooled miR-30 sensor sort-seq; sequence = guide strand
# condition details: shRNA
assay endpoint: sensor-assay potency score (higher = more potent)
One number for each entry.

For orientation, consider the following solved cases.
sensor-assay potency score (higher = more potent) reading for AATTCCACGCGCACCTGCGTGC : -0.771

Record summary for TTTTACATTGCGGATGATGGAT : reported sensor-assay potency score (higher = more potent) = -0.481

Lab note: TTGCGGATGATGGATCGGCTCG gave sensor-assay potency score (higher = more potent) of -1.36

Entry TTGGTGACCCTGGCCAGCTTGA — recorded sensor-assay potency score (higher = more potent) = -1.2

Lookup result for TGGATCGGCTCGTGTCGTCCAT ; measured sensor-assay potency score (higher = more potent): -1.14

sensor-assay potency score (higher = more potent) reading for TCGCTCTGACTCCAAAAGGGTG : -1.7

***
sequence TGCACTGTCCCTGAGAACCGGT , sensor-assay potency score (higher = more potent) observed: -1.07

###

# study system: KCNN3
# assay details: pooled miR-30 sensor sort-seq; sequence = guide strand
# condition details: shRNA
Rule: sensor-assay potency score (higher = more potent) under -0.4 gives 0 (no), otherwise 1 (yes).

Hi team, for TAGGTCATGGCTATCCGCCAGT , is the recorded sensor-assay potency score (higher = more potent) at or above -0.4?
0 (no)

Quick check, sensor-assay potency score (higher = more potent) >= -0.4? TACATGACATTCTGCATCTTGG
0 (no)

Hi team, for TTCTCCAGGTCTTCGCTCCGGT , is the recorded sensor-assay potency score (higher = more potent) at or above -0.4?
1 (yes)

Is reported sensor-assay potency score (higher = more potent) greater than or equal to -0.4 here: TTGAAGTTGATCTTGTTGAGGG
1 (yes)

Assess whether reported sensor-assay potency score (higher = more potent) for TTGTCGATCACGAAGAGCTGGA sits at -0.4 or higher.
1 (yes)

// next entry
Please check the record ATACATGACATTCTGCATCTTG and state if its sensor-assay potency score (higher = more potent) is at or above -0.4.
1 (yes)

###

What sensor-assay potency score (higher = more potent) was measured for each of the following?
# study system: TM4SF4
# assay details: pooled miR-30 sensor sort-seq; sequence = guide strand
# condition details: shRNA
One number for each entry.

Measured sensor-assay potency score (higher = more potent), TTGTTGATTGAAATGGCTGAGA : -0.818

Items follow; give sensor-assay potency score (higher = more potent) for each.
1. TAAACGAGTATCCAGCTCCCAA
2. ATTGAGATAATCCCCGTCGTGG
3. TTGACCACCTGGATGGCGCAGA
4. AACATCGCAAATCGCTTCCCAC
5. TTTGAAAATAACAAAATTCTAA
6. TCGTGGAGGTGAACATCGCAAA
7. AAGATCATCAAGACACCGCTTC

-1.07
-0.0711
-0.376
-1.03
-0.879
-1.55
0.685

###

# study system: GLA
# assay details: pooled miR-30 sensor sort-seq; sequence = guide strand
# condition details: shRNA
Record Yes whenever sensor-assay potency score (higher = more potent) is at -0.4 or higher; record No when lower.

Solved entries (count: 5):
Decide: sensor-assay potency score (higher = more potent) of AACTGTCACAGTAACAACCATC >= -0.4?
No

Has TTTAGCAGATCTACTCCCCAGT a recorded sensor-assay potency score (higher = more potent) greater than or equal to -0.4?
No

Can TAGACATGAATAAAGGAGCAGC be said to have sensor-assay potency score (higher = more potent) at or above -0.4?
Yes

Confirm if sensor-assay potency score (higher = more potent) reported for the sequence TTTATTTCCAACATCTGCATAA is -0.4 or above.
No

Reported sensor-assay potency score (higher = more potent) reaches at least -0.4 for TTTATCATAGCTACAGCCCAGG ?
No

***
Check this sequence for sensor-assay potency score (higher = more potent) at or above -0.4: TTACTTGCTGATTCCAGCTGAG
Yes

Check this sequence for sensor-assay potency score (higher = more potent) at or above -0.4: TTATGTGACTTCTTAACCTTGA
Yes

###

# study system: C1orf105
# assay details: pooled miR-30 sensor sort-seq; sequence = guide strand
# condition details: shRNA
Param threshold (-0.8) applies to sensor-assay potency score (higher = more potent); output 1 when value >= threshold, -1 when value < threshold.

Hi, just wondering whether TTGCCTATTGGTTCCTTTCTGG shows sensor-assay potency score (higher = more potent) of -0.8 or higher.
1

New cases:
Quick check, sensor-assay potency score (higher = more potent) >= -0.8? TTTTCATTTCTTGACATGTGGA
1

API: above_or_equal(metric=sensor-assay potency score (higher = more potent), cutoff=-0.8) for item TTTGGGTTGATGAAGACTCATT
-1

Threshold query (sensor-assay potency score (higher = more potent) >= -0.8) on TAAGCCAAGGAATCTTGTCAAA
-1

Please tell me: is the sequence TTCTGGGCAAGGAAGAACGTTG at or over -0.8 in terms of sensor-assay potency score (higher = more potent)?
1

Check the entry TTTCATTTCTTGACATGTGGAG : does sensor-assay potency score (higher = more potent) equal or exceed -0.8?
1

###

# study system: KLF9
# assay details: pooled miR-30 sensor sort-seq; sequence = guide strand
# condition details: shRNA
Kindly supply the reported sensor-assay potency score (higher = more potent) values for the records listed here.
Give bare numbers.

Example cases with answers are listed next.
GET /value?item= TTTATATCCATCTAAGTGCTTG &field=sensor-assay potency score (higher = more potent) returns -0.361

Field sensor-assay potency score (higher = more potent) (entry TATCTTGATATAGTAAATCTAA ) reads -0.625

Let's switch to this sequence now.
For this sequence ( TAACTTATTCATCCTCTGCATT ), measured sensor-assay potency score (higher = more potent) is -0.919

###

# study system: PDE12
# assay details: pooled miR-30 sensor sort-seq; sequence = guide strand
# condition details: shRNA
Could you please report measured sensor-assay potency score (higher = more potent) for the items listed next?
One number for each entry.

For reference, reported sensor-assay potency score (higher = more potent) for TAACTTCTTCATGACTAGGTAA stands at -0.476

So, TATCCTTTTAGAAGAGTCCTTT ? Its sensor-assay potency score (higher = more potent) was 0.141

According to the records, this sequence TTGAGGTAGAGGTAGACCCTAA displays sensor-assay potency score (higher = more potent) of -0.795

Record summary for TTGAAGTTTACATATAAGCTTT : reported sensor-assay potency score (higher = more potent) = -0.258

get_value(item= AAATGTAATCTAGACATCCATG , readout=sensor-assay potency score (higher = more potent)) returns -1.09

Recorded result, TGAAATTGTAGTAAATCGCTAA , sensor-assay potency score (higher = more potent): 0.612

New cases:
Short answer for TTCTTTGTGAAGTGGGTCGGAC : sensor-assay potency score (higher = more potent) was -0.551

###

# study system: CTSH
# assay details: pooled miR-30 sensor sort-seq; sequence = guide strand
# condition details: shRNA
Response key: True means sensor-assay potency score (higher = more potent) >= -0.2; False means sensor-assay potency score (higher = more potent) < -0.2.

Please review the entries below; each comes with its answer.
Could you please find out whether TATATGTGGAAAGTAGCCCTTC has sensor-assay potency score (higher = more potent) that meets -0.2 or exceeds it?
True

Is reported sensor-assay potency score (higher = more potent) greater than or equal to -0.2 here: TTAGACATCCATGACTTGAAGT
False

Would you say TTTATCTGGAGTTTTATGGCAG shows sensor-assay potency score (higher = more potent) at minimum -0.2?
False

More entries:
Check this sequence for sensor-assay potency score (higher = more potent) at or above -0.2: TTTTATGGCAGGAAGTACTGGA
True

Given the entry TTCCTCGTCATAGATTGTGATG , answer whether its sensor-assay potency score (higher = more potent) meets or surpasses -0.2.
False

# check: sensor-assay potency score (higher = more potent) of TTACGGTGCTTAGACATCCATG is greater than or equal to -0.2
False

Does TTGTTGTACAGGATATACTCGA have a reported sensor-assay potency score (higher = more potent) of at least -0.2?
True

Reported sensor-assay potency score (higher = more potent) reaches at least -0.2 for TCTATACATCATGAAGTCCTGA ?
True
